Tested on: A549 cells expressing EGFP
PROTOCOL_SUMMARY: EGFP-targeting siRNA delivery (GFP silencing vs siMOCK), A549
Assay type: cell-based
RUN_CONDITIONS: Myristoleyl, 15 μM, A549 cells
*: point of attachment. NHNH2 = NN*
# reported percentage of GFP-silencing relative to siMOCK; entries follow
Quick note: give the figure in %, leave out the unit.

Use the examples below as a reference point.
[ask] For Ac-RK*LRRLLRK*-NH2 (Ac-RK(NHNH2)LRRLLRK(NHNH2)-NH2; not fully specified; printed as Ac-RK*LRRLLRK*-NH2; also: K*2,K*9: native or modified lysine (ε-amide to a linker)) [Peptide 9.2] , what is its reported percentage of GFP-silencing relative to siMOCK?
[reply] −14

[ask] For Ac-RHLK*RLK*RRLK*RL-NH2 (Ac-RHLKRLKRRLKRL-NH2; not fully specified (residues 4, 7, 11); printed as Ac-RHLK*RLK*RRLK*RL-NH2; also: linker on K* not given here) [13(Arg-His)] , what is its reported percentage of GFP-silencing relative to siMOCK?
[reply] 5

[ask] For Ac-RHLK*RHK*RRLK*RH-NH2 (Ac-RHLKRHKRRLKRH-NH2; not fully specified (residues 4, 7, 11); printed as Ac-RHLK*RHK*RRLK*RH-NH2; also: linker on K* not given here) [13(3His)] , what is its reported percentage of GFP-silencing relative to siMOCK?
[reply] 25

Pending substance:
[ask] For Ac-RRLK*RLLRRLK*RLK*RRL-NH2 (Ac-RRLK(NHNH2)RLLRRLK(NHNH2)RLK(NHNH2)RRL-NH2; not fully specified; printed as Ac-RRLK*RLLRRLK*RLK*RRL-NH2; also: K*4,K*11,K*14: native or modified lysine (ε-amide to a linker)) [Peptide 17.3] , what is its reported percentage of GFP-silencing relative to siMOCK?
[reply] 6

---

# reported percentage of gene editing, GFP fluorescence intensity decrease (% of reduction); entries follow
System: HCT116 cells expressing EGFP
PROTOCOL_SUMMARY: Cas9-RNP delivery against EGFP (gene editing, plate reader), HCT116
Type: cell-based
RUN_CONDITIONS: Dodecanal, 5 μM
*: point of attachment. NHNH2 = NN*
// unit must come after the numeric part

Use the examples below as a reference point.
[ask] # get_value(readout= percentage of gene editing, GFP fluorescence intensity decrease (% of reduction), system= HCT116 cells expressing EGFP) for Ac-RHLK*RHK*RRLK*RH-NH2 (Ac-RHLKRHKRRLKRH-NH2; not fully specified (residues 4, 7, 11); printed as Ac-RHLK*RHK*RRLK*RH-NH2; also: linker on K* not given here) [13(3His)]
[reply] −33%

[ask] # get_value(readout= percentage of gene editing, GFP fluorescence intensity decrease (% of reduction), system= HCT116 cells expressing EGFP) for Ac-RRLK*RLLRRLK*RLK*RRL-NH2 (Ac-RRLK(NHNH2)RLLRRLK(NHNH2)RLK(NHNH2)RRL-NH2; not fully specified; printed as Ac-RRLK*RLLRRLK*RLK*RRL-NH2; also: K*4,K*11,K*14: native or modified lysine (ε-amide to a linker)) [Peptide 17.3]
[reply] −2%

[ask] # get_value(readout= percentage of gene editing, GFP fluorescence intensity decrease (% of reduction), system= HCT116 cells expressing EGFP) for Ac-RK*LRRLLRK*-NH2 (Ac-RK(NHNH2)LRRLLRK(NHNH2)-NH2; not fully specified; printed as Ac-RK*LRRLLRK*-NH2; also: K*2,K*9: native or modified lysine (ε-amide to a linker)) [Peptide 9.2]
[reply] −34%

Pending substance:
[ask] # get_value(readout= percentage of gene editing, GFP fluorescence intensity decrease (% of reduction), system= HCT116 cells expressing EGFP) for Ac-RHLK*RLK*RRLK*RL-NH2 (Ac-RHLKRLKRRLKRL-NH2; not fully specified (residues 4, 7, 11); printed as Ac-RHLK*RLK*RRLK*RL-NH2; also: linker on K* not given here) [13(Arg-His)]
[reply] 4%

---

Tested on: HepG2 cells expressing EGFP
PROTOCOL_SUMMARY: EGFP-targeting siRNA delivery (GFP silencing vs siMOCK), HepG2
Format: cell-based
RUN_CONDITIONS: Petroselinyl, 5 μM
*: point of attachment. NHNH2 = NN*
READOUT: percentage of GFP-silencing relative to siMOCK (%)
Quick note: give the figure in %, leave out the unit.

[ask] # get_value(readout= percentage of GFP-silencing relative to siMOCK, system= HepG2 cells expressing EGFP) for Ac-RHLK*RLK*RRLK*RL-NH2 (Ac-RHLKRLKRRLKRL-NH2; not fully specified (residues 4, 7, 11); printed as Ac-RHLK*RLK*RRLK*RL-NH2; also: linker on K* not given here) [13(Arg-His)]
[reply] 21

[ask] # get_value(readout= percentage of GFP-silencing relative to siMOCK, system= HepG2 cells expressing EGFP) for Ac-RRLK*RLLRRLK*RL-NH2 (Ac-RRLK(NHNH2)RLLRRLK(NHNH2)RL-NH2; not fully specified; printed as Ac-RRLK*RLLRRLK*RL-NH2; also: K*4,K*11: native or modified lysine (ε-amide to a linker)) [Peptide 13.2]
[reply] −11

[ask] # get_value(readout= percentage of GFP-silencing relative to siMOCK, system= HepG2 cells expressing EGFP) for Ac-RRLK*RLLRRLK*RLK*RRL-NH2 (Ac-RRLK(NHNH2)RLLRRLK(NHNH2)RLK(NHNH2)RRL-NH2; not fully specified; printed as Ac-RRLK*RLLRRLK*RLK*RRL-NH2; also: K*4,K*11,K*14: native or modified lysine (ε-amide to a linker)) [Peptide 17.3]
[reply] −11

Pending substance:
[ask] # get_value(readout= percentage of GFP-silencing relative to siMOCK, system= HepG2 cells expressing EGFP) for Ac-RHLK*RHK*RRLK*RH-NH2 (Ac-RHLKRHKRRLKRH-NH2; not fully specified (residues 4, 7, 11); printed as Ac-RHLK*RHK*RRLK*RH-NH2; also: linker on K* not given here) [13(3His)]
[reply] −1

---

System: A549 cells expressing EGFP
PROTOCOL_SUMMARY: Cas9-RNP delivery against EGFP (gene editing, plate reader), A549
Assay type: cell-based
RUN_CONDITIONS: Myristoleyl, 5 μM, A549 cells
*: point of attachment. NHNH2 = NN*
READOUT: percentage of gene editing, GFP fluorescence intensity decrease (% of reduction)
// unit must come after the numeric part

Use the examples below as a reference point.
[ask] For Ac-RHLK*RHK*RRLK*RH-NH2 (Ac-RHLKRHKRRLKRH-NH2; not fully specified (residues 4, 7, 11); printed as Ac-RHLK*RHK*RRLK*RH-NH2; also: linker on K* not given here) [13(3His)] , what is its reported percentage of gene editing, GFP fluorescence intensity decrease (% of reduction)?
[reply] 5%

[ask] For Ac-RK*LRRLLRK*-NH2 (Ac-RK(NHNH2)LRRLLRK(NHNH2)-NH2; not fully specified; printed as Ac-RK*LRRLLRK*-NH2; also: K*2,K*9: native or modified lysine (ε-amide to a linker)) [Peptide 9.2] , what is its reported percentage of gene editing, GFP fluorescence intensity decrease (% of reduction)?
[reply] 9%

[ask] For Ac-RRLK*RLLRRLK*RLK*RRL-NH2 (Ac-RRLK(NHNH2)RLLRRLK(NHNH2)RLK(NHNH2)RRL-NH2; not fully specified; printed as Ac-RRLK*RLLRRLK*RLK*RRL-NH2; also: K*4,K*11,K*14: native or modified lysine (ε-amide to a linker)) [Peptide 17.3] , what is its reported percentage of gene editing, GFP fluorescence intensity decrease (% of reduction)?
[reply] 17%

Pending substance:
[ask] For Ac-RHLK*RLK*RRLK*RL-NH2 (Ac-RHLKRLKRRLKRL-NH2; not fully specified (residues 4, 7, 11); printed as Ac-RHLK*RLK*RRLK*RL-NH2; also: linker on K* not given here) [13(Arg-His)] , what is its reported percentage of gene editing, GFP fluorescence intensity decrease (% of reduction)?
[reply] 5%

---

# reported mean luminescent intensity (RLuc pDNA); entries follow
Test system: ARPE19 cells
PROTOCOL_SUMMARY: RLuc pDNA delivery, robotic library screening, ARPE19
Format: cell-based
RUN_CONDITIONS: Myristoleyl, 15 μM
*: point of attachment. NHNH2 = NN*
Quick note: give the figure in RLU, leave out the unit.

Use the examples below as a reference point.
[ask] For Ac-RRK*K*RK*LRRLLRL-NH2 [13(3b)] , what is its reported mean luminescent intensity (RLuc pDNA)?
[reply] 64

[ask] For Ac-RHLK*RLK*RRLK*RL-NH2 (Ac-RHLKRLKRRLKRL-NH2; not fully specified (residues 4, 7, 11); printed as Ac-RHLK*RLK*RRLK*RL-NH2; also: linker on K* not given here) [13(Arg-His)] , what is its reported mean luminescent intensity (RLuc pDNA)?
[reply] −11

[ask] For Ac-RHLK*RHK*RRLK*RH-NH2 (Ac-RHLKRHKRRLKRH-NH2; not fully specified (residues 4, 7, 11); printed as Ac-RHLK*RHK*RRLK*RH-NH2; also: linker on K* not given here) [13(3His)] , what is its reported mean luminescent intensity (RLuc pDNA)?
[reply] 28

[ask] For Ac-RRLK*RLLRRLK*RLK*RRL-NH2 (Ac-RRLK(NHNH2)RLLRRLK(NHNH2)RLK(NHNH2)RRL-NH2; not fully specified; printed as Ac-RRLK*RLLRRLK*RLK*RRL-NH2; also: K*4,K*11,K*14: native or modified lysine (ε-amide to a linker)) [Peptide 17.3] , what is its reported mean luminescent intensity (RLuc pDNA)?
[reply] −339

Pending substance:
[ask] For Ac-RK*LRRLLRK*-NH2 (Ac-RK(NHNH2)LRRLLRK(NHNH2)-NH2; not fully specified; printed as Ac-RK*LRRLLRK*-NH2; also: K*2,K*9: native or modified lysine (ε-amide to a linker)) [Peptide 9.2] , what is its reported mean luminescent intensity (RLuc pDNA)?
[reply] −547
